Assay: NCI Yeast Anticancer Drug Screen. Data for the mec2-1 strain (AID 157)
Conditions: S. cerevisiae mec2-1 strain, at 50.0 µM, hits give high values
About 79,000 compounds went through this panel and 15% of them were active in at least one assay; those are over-represented in the sample as a whole. The source made the active and inactive calls. Rule as the data show it: active = growth inhibition above about 70%; inactive = the rest.
This section presents compounds with their documented growth inhibition values.

{"compound": "Nc1ncnc2c1sc(=S)n2-c1ccccc1", "growth inhibition": "4.55% (inactive)"}
{"compound": "CC(=O)C1(C)OC(c2ccccc2)=NC1=S (stereo not given)", "growth inhibition": "14.3% (inactive)"}
{"compound": "N#CC(NCc1cccc(CNC(C#N)c2ccccc2)c1)c1ccccc1 (stereo not given)", "growth inhibition": "8.4% (inactive)"}
{"compound": "CCc1c(Cl)c(Cl)c(Cl)c(Cl)c1Cl", "growth inhibition": "2.35% (inactive)"}
{"compound": "COc1ccc(C2OC3=C(Nc4ccc([N+](=O)[O-])cc4N3)C2=O)cc1 (stereo not given)", "growth inhibition": "-19.3% (inactive)"}
